Values were extracted from PubChem BioAssay AID1259343.

# Assay remarks: Mycobacterium tuberculosis growth inhibition, primary screen (AID 1259343)
# Cond: at 10 µM, hits give high values
Hit rate of the full screen: of about 6,200 compounds, about 2,900 (47%) were called active. So high a share suggests a set chosen from earlier hits. The list shows a part of the results.
# label = t if inhibition >= 50% else f

Some entries whose results are on file:
CCc1ccc(CN(C)C(=O)NCCC2CCCC2)cc1; t
Oc1ccc(-c2nc3c4cnn(-c5ccccc5Cl)c4ncn3n2)cc1; f
Cc1cc(=O)[nH]c(-n2nc(C3CC3)cc2NC(=O)c2ccccc2)n1; t
CN(Cc1ccccc1)c1ncnc(Oc2ccc3c(c2)OCO3)c1N; f
OCc1sc(N2CCOCC2)nc1-c1ccccc1; t
CSc1nnc(COc2ccccc2Cl)n1C1CC1; f
Cc1ccc2nc(C3CCN(c4nncc(-c5ccc(Cl)cc5)n4)CC3)[nH]c2c1; f
CCc1ccc(OCCCn2c(CO)nc3ccccc32)cc1; t
Cc1cc(C)cc(C(=O)Nc2cc(C)nn2-c2nc(C)cc(=O)[nH]2)c1; t
CC(C)c1ccc(C#N)c(SC2CC(=O)N(c3ccc(Br)cc3)C2=O)n1 (centres undefined); f

Inquiry: Could you please find out whether `COc1cc(S(=O)(=O)N2CCN(c3ccccc3C)CC2)ccc1Cl` has inhibition that meets 50% or exceeds it?
Reply text: f

Inquiry: Could you please find out whether CC1CN(C(=O)c2ccc(NC(=O)C3CC3)cc2)c2ccccc2O1 (centres undefined) has inhibition that meets 50% or exceeds it?
Reply text: t

Inquiry: Could you tell me if the measured inhibition of `NC(=O)c1ccc(OCc2cc(Cl)c3c(c2)OCO3)cc1` reaches 50% or more?
Reply text: f

Inquiry: Assess whether reported inhibition for `Cc1ccc(C(=O)Nc2cc(C)nn2-c2nc(C)cc(=O)[nH]2)cc1` sits at 50% or higher.
Reply text: t

Inquiry: Does inhibition meet or surpass 50% for `Cc1nc2nc(CC(=O)N3CCOCC3)nn2c(C)c1Cl` ?
Reply text: t

###

# Assay remarks: Mycobacterium tuberculosis growth inhibition, primary screen (AID 1259343)
# Cond: at 10 µM, hits give high values
Out of some 6,200 compounds screened, about 2,900 (47%) were called active. So high a share suggests a set chosen from earlier hits. The list shows a part of the results.
Collected inhibition values appear next to each entry.

Cc1cc(/C=C/c2ccc3cc(N(C)C)ccc3[n+]2C)c(C)n1-c1ccccc1; 48.1% (inactive)
O=C1NC(=S)SC1=Cc1ccccc1OC(F)F; 81.1% (active)

Inquiry: Given the entry `Cc1cc(/C=N\O)c(C)n1-c1ccc(-c2ccccc2)cc1` , report its measured inhibition.
Reply text: 79.1% (active)

Inquiry: Which value of inhibition has been reported for `CNc1cc(C)nc(NCc2cc(C)cc3c(C)c(C)[nH]c23)n1` in the records?
Reply text: 41.1% (inactive)

Inquiry: inhibition lookup needed for c1ccc(-c2nnc3n2NC(c2ccc4c(c2)OCO4)S3)cc1 (stereo unspecified) , thanks.
Reply text: -2.01% (inactive)

Inquiry: Reported inhibition for `[O-]/[N+](Cc1ccccc1)=N/OCc1ccccc1` : what is it?
Reply text: 83.2% (active)

###

# Assay remarks: Mycobacterium tuberculosis growth inhibition, primary screen (AID 1259343)
# Cond: at 10 µM
Screen size: about 6,200 compounds; about 2,900 (47%) were called active. Cut-off read from the data, not from the text of the source: active = inhibition above about 50%; inactive = the rest. The set was probably picked from earlier hits. The list shows a part of the results.
Reply using exactly one outcome from active, inactive

# example entries with known answers
O=C(NNS(=O)(=O)c1ccc2c(c1)OCCO2)c1cc2c(s1)CCCCC2; inactive
Fc1ccc(NN=C2c3ccccc3-c3ccccc32)cc1; inactive
CC(O)CNCCCCOc1ccc(OCc2ccccc2)cc1 (centres undefined); active
CC(C)(C)c1ccc(OCc2ccc(-c3nnco3)cc2)cc1; inactive
CCS(=O)(=O)c1ccc(NC(=O)Cc2ccc(Cl)c(Cl)c2)cc1; inactive

Inquiry: Short answer needed: outcome of this test for `O=c1c(Cl)c(Cl)cnn1Cc1cc(-c2cccs2)on1` ?
Reply text: active

Inquiry: Any idea what this test logged for `COC(=O)CCc1nnc(NS(=O)(=O)c2ccc(C)c(C)c2)s1` ?
Reply text: inactive

Inquiry: Which outcome was entered for the compound `Fc1ccc(COc2ccc(-c3nnco3)cc2)c(Cl)c1` in this test?
Reply text: active

Inquiry: Field: outcome | Entry: `O=C(Cn1nc(-c2ccc(F)cc2)oc1=O)N1CCSc2ccccc21`
Reply text: active

Inquiry: What classification did `Fc1ccc(CC2CCN(Cc3nc(CC4CC4)no3)CC2)cc1` end up with in this test?
Reply text: active

Inquiry: Tell me the assay call for `CC(=O)Nc1ccc(Sc2ncnc3sccc23)cc1` please.
Reply text: inactive

Inquiry: # outcome recorded in this test, key = COc1ccc2c(c1)OCC(C(=O)NS(=O)(=O)c1cccs1)C2 (centres undefined)
Reply text: active

Inquiry: So what was the verdict on `CN(Cc1cnn(-c2ccc(F)cc2)c1)Cc1nc(CC2CC2)no1` in this test?
Reply text: inactive

Inquiry: Outcome logged for `OC1(c2ccc(OCc3ccccc3)cc2)CCOCC1` in this assay:
Reply text: inactive

Inquiry: Could you check what this test reported for `O=C1NC(=S)NC(=O)C1=Cc1ccc(OCc2ccc(Cl)cc2)cc1` ?
Reply text: active

Inquiry: What did the test return for `N#CC(C#N)=NNc1ccccc1` ?
Reply text: inactive

Inquiry: Hello, I am checking results. What call was entered for `N#CC(C#N)=NNc1ccc(F)cc1` ?
Reply text: active

Inquiry: What did this assay record as the result for `CC(C)(C)NC(=O)[C@H]1CC[C@H]2[C@@H]3CC[C@H]4NC(=O)C=C[C@]4(C)[C@H]3CC[C@]12C` ?
Reply text: active

Inquiry: Hi, do you know how `Cc1ccc(Cl)cc1N1CCN(Cc2nc(C3CC3)no2)CC1` came out in this test?
Reply text: inactive

Inquiry: Tell me the recorded outcome of this test for `Cc1csc(Sc2ccc(NC(=O)c3cnn(C)c3C)cc2)n1` .
Reply text: inactive

Inquiry: Given COc1ccc2c(c1)CC(C(=O)N(C)Cc1ccco1)CO2 (centres undefined) , state the outcome it received in this test.
Reply text: inactive

Inquiry: Tell me the recorded outcome of this test for `COc1cccc(NC(=O)N2CCN(CCCOC(c3ccc(Cl)cc3)c3ccc(Cl)cc3)CC2)c1` .
Reply text: inactive

Inquiry: So what was the verdict on `O=c1c(Cl)c(Cl)cnn1CCOc1ccc(Br)cc1` in this test?
Reply text: inactive

Inquiry: Which result was noted for this compound in the test: `COc1ccc(-c2noc(Cn3ccc4cccnc43)n2)cc1`
Reply text: active

###

# Assay remarks: Mycobacterium tuberculosis growth inhibition, primary screen (AID 1259343)
# Cond: at 10 µM, hits give high values
Out of some 6,200 compounds screened, about 2,900 (47%) were called active. So high a share suggests a set chosen from earlier hits. The list shows a part of the results.
inhibition for assorted compounds

Inquiry: For the compound shown here, CC(NC(=O)COc1ccc2cc(Br)ccc2c1)c1ccc(F)cc1 (stereo unspecified) , give the reported inhibition.
Reply text: -32.3% (inactive)

Inquiry: Quick one: inhibition for `O=C(O)COc1ccc2cc(Br)ccc2c1` ?
Reply text: 78.5% (active)

Inquiry: Report inhibition for COC(=O)CN1C(c2ccc(OC)cc2)=Nc2ccc(Br)cc2C1c1ccccc1 (stereo unspecified) please.
Reply text: 29.4% (inactive)

Inquiry: Record request: inhibition value, item `CCCS(=O)(=O)N1CCc2[nH]c3ccc(F)cc3c2C1`
Reply text: 22.7% (inactive)

Inquiry: Quick one: inhibition of `CN(C)Cc1ccc2ccc3cccc4ccc1c2c34` ?
Reply text: 90.5% (active)

Inquiry: Please give the measured inhibition for this compound: `Cc1cccc(CN(C)C)c1OC(=O)N(C)C`
Reply text: 3.93% (inactive)

###

# Assay remarks: Mycobacterium tuberculosis growth inhibition, primary screen (AID 1259343)
# Cond: at 10 µM, hits give high values
In all, about 6,200 compounds went through this assay and about 2,900 (47%) were called active. So high a share suggests a set chosen from earlier hits. Some of the results follow.
Property: inhibition

Oc1ccc(CCNc2nccc(C3CCCC3)n2)cc1; 51.5% (active)
c1ccc(CC[P+](c2ccccc2)(c2ccccc2)c2ccccc2)cc1; 62.6% (active)
O=C(/C=C/c1ccc([N+](=O)[O-])s1)Nc1ccc(F)cc1F; 99.5% (active)
Brc1ccccc1-c1csc(=Nc2cccnc2)n1C1CC1; 36.9% (inactive)

Inquiry: What inhibition value was documented for this compound, `CCN1C(=Cc2cc(C)[n+](C3CCCCC3)c(C)c2)Sc2ccccc21` ?
Reply text: -19.4% (inactive)

Inquiry: Item `COc1ccc2c(c1)c(CC(=O)O)c(C)n2C(=O)c1ccc(Cl)cc1` has what recorded inhibition?
Reply text: 43.2% (inactive)

Inquiry: Give its inhibition value. Item: `CCN1C(=Cc2ccc3cc(C)ccc3[n+]2CC)Sc2ccccc21`
Reply text: 56.1% (active)

###

# Assay remarks: Mycobacterium tuberculosis growth inhibition, primary screen (AID 1259343)
# Cond: at 10 µM, hits give high values
Among all 6,200 compounds or so, about 2,900 (47%) were called active. The set was probably picked from earlier hits. Some of the results follow.
Property: inhibition (%)
Give just the numeric value; % need not be written.

O=[N+]([O-])c1cccc(-c2n[nH]c(=S)o2)c1; 91.4

Now, please, on to the next compound.
Inquiry: Recorded inhibition for `S=c1[nH]nc(-c2cccc(Br)c2)o1` , please?
Reply text: 62.1
